- SUBJECT_OF_TEST: furin, P09958
- Sequence (P09958 whole entry): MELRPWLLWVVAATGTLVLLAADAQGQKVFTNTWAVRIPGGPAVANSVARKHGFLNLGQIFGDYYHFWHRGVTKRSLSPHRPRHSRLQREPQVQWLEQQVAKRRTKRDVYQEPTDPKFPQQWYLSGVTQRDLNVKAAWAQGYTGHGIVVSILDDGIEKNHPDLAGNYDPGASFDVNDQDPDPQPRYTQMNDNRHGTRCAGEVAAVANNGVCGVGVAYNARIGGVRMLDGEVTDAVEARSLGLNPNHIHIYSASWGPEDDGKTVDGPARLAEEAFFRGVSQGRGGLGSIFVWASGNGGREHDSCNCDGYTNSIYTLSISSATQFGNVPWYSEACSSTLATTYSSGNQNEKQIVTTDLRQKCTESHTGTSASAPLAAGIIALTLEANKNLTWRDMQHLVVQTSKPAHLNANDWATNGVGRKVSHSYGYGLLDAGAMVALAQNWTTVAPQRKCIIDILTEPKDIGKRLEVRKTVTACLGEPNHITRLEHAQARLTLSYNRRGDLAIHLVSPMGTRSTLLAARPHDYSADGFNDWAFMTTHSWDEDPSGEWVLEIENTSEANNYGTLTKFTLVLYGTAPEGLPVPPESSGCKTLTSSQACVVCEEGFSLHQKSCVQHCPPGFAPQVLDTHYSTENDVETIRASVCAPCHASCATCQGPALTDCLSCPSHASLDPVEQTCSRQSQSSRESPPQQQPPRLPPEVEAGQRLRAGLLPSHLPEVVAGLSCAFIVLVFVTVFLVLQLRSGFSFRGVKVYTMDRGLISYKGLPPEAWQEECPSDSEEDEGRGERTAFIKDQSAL
- ASSAY_NOTES: furin cleavage Z-score vs untreated control; higher = more cleavage, active = 3.5 or more, inactive = 1 or less, 8 variable residues between constant flanks;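 note: purified furin at 1:10 enzyme:substrate in 50 mM HEPES pH 7.5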
- CONDITION_NOTES: 30 min
The other results are listed elsewhere or left out. The true hit rate is not given.
METRIC: furin cleavage Z-score
Answer with a bare number; do not write a unit.

Query: Could you please provide reported furin cleavage Z-score for CARMRRRPGPAGNASASA [FS-2725] ? Thanks!
Result: 1.1

Query: Indicate the recorded furin cleavage Z-score value for this sequence: CARLKRDPGIAGNASASA [FS-2350]
Result: 3.42

Query: Quick one: give measured furin cleavage Z-score for CAVRKRSPWLAGNASASA [FS-3142]
Result: 1.17

Query: Determine its reported furin cleavage Z-score: CAASQLSAPSAGNASASA [HC1262]
Result: 2.91
